# Measured on: T1, biotinylated CD3 epsilon:delta heterodimer protein (Amsbio AMS.CDD-H52WO) (Homo sapiens (Human), UniProt P07766 23-126; P04234 22-105)
# T1 construct: also called CD3 heterodimer
# Protocol description: BLI (Octet), CD3 on SA sensor, Fab analyte;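 note: biolayer interferometry with biotinylated CD3 epsilon:delta captured on streptavidin sensors, Fab analyte at several concentrations up to 300 nM, 100 s association then 300 s dissociation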
So I've got a bunch of binders here, and I need their kon values.
Please state the figure in M⁻¹ s⁻¹; there is no need to write the unit.

Quick note, kon for huSP34.8.1 Fab-HF (Fab, V domains shown, also called HC8+LC1) VH: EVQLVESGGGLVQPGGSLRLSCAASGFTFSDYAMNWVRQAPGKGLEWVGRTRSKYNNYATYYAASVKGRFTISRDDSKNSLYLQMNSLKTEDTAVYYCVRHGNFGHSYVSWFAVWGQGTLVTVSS VL: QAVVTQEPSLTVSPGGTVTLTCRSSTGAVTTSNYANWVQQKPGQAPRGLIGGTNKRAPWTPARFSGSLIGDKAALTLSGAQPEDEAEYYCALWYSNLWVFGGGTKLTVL landed at 186000

Quick note, kon for huSP34.4.5 Fab-HF (Fab, V domains shown, also called HC4+LC5) VH: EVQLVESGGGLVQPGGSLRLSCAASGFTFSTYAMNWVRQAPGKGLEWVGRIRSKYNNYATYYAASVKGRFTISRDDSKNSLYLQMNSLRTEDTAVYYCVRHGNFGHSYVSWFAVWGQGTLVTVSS VL: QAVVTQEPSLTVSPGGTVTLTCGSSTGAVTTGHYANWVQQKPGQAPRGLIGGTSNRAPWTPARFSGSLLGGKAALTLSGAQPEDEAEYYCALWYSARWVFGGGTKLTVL landed at 241000

Quick note, kon for huSP34.3.6 Fab-HF (Fab, V domains shown, also called HC3+LC6) VH: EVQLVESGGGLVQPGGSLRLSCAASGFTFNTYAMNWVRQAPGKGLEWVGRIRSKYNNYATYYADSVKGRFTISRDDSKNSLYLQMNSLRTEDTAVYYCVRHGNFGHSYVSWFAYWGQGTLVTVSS VL: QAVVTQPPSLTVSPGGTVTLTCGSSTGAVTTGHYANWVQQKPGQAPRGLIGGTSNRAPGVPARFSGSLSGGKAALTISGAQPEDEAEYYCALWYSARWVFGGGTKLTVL landed at 266000
